# Tested System: IRE1a (Homo sapiens, UniProt O75460)
# Sequence (O75460 19-977): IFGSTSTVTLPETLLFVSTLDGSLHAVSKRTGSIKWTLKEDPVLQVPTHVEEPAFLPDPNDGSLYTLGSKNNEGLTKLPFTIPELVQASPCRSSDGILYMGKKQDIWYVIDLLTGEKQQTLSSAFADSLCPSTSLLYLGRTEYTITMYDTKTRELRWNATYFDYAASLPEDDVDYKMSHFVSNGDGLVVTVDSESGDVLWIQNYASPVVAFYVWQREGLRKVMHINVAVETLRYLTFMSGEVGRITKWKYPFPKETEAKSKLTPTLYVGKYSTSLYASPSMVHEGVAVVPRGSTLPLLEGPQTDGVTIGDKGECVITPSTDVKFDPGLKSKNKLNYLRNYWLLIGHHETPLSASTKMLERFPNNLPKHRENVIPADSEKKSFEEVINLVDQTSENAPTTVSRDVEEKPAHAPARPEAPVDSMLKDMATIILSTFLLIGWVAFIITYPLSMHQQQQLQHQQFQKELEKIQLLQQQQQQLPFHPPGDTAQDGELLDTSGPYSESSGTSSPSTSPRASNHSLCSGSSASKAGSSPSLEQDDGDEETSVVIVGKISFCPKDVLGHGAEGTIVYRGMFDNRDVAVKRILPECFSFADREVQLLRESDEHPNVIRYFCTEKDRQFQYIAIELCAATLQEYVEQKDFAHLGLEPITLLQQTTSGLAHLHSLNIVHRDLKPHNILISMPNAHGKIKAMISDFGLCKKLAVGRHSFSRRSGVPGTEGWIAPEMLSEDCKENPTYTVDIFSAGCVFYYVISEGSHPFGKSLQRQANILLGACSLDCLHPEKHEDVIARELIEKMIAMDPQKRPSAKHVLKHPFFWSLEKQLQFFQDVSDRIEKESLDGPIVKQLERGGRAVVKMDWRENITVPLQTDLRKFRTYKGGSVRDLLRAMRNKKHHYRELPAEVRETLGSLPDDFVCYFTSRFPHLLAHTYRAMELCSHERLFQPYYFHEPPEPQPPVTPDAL
# Method Summary: IRE1a Endoribonuclease Nanoluciferase Assay in 293T cells
# Condition Description: XBP1 luciferase reporter in 293T cells, ER stressor
pEC50: −log10 of the molar value. Structures can show the parent of a compound that is named as a salt.
Test Readout: pEC50

Query :: Item under review: Cc1nc(NS(=O)(=O)c2ccccc2Cl)ccc1-c1cc(C(C)(F)F)c2nc(N[C@H]3CC[C@H](N(C)C)CC3)ncc2c1 [131; Formic Acid Salt] . Reported pEC50?
Result :: ≥ 8.30

Query :: Fill blank: measured pEC50 of the compound CCc1cc(-c2ccc(NS(=O)(=O)c3ccccc3Cl)nn2)cc2cnc(N[C@H]3CC[C@H](N(C)C)CC3)nc12 [64; Formic Acid Salt] is ____.
Result :: ≥ 8.30

Query :: Dear colleague, I am looking for the recorded pEC50 of the following compound: CCc1c(F)c(-c2ccc(NS(=O)(=O)c3ccccc3Cl)nc2C)cc2cnc(N[C@H]3CC[C@H](N(C)C)CC3)nc12 [161; Formic Acid Salt]
Result :: ≥ 8.30

Query :: Recorded pEC50 of CCc1cc(-c2cnc(NS(=O)(=O)c3ccccc3Cl)cc2OC)cc2cnc(N[C@H]3CC[C@H](N)CC3)nc12 [92; Formic Acid Salt] , please.
Result :: 5.00 to 7.00

Query :: Fill blank: measured pEC50 of the compound N[C@H]1CC[C@H](Nc2ncc3cc(-c4nnc(NS(=O)(=O)c5ccccc5Cl)s4)ccc3n2)CC1 [89; Formic Acid Salt] is ____.
Result :: 5.00 to 7.00

Query :: Which pEC50 value is on record for CCc1nc(NS(=O)(=O)c2ccccc2Cl)ccc1-c1cc(CC)c2nc(N[C@H]3CC[C@H](N(C)C)CC3)ncc2c1 [117; Formic Acid Salt] ?
Result :: ≥ 8.30

====

Structures can show the parent of a compound that is named as a salt.
Test Readout: IC50

Query :: Record lookup: for IRE1a (Homo sapiens, UniProt O75460), what IC50 belongs to COc1nc(NS(=O)(=O)c2ccccc2Cl)c(F)cc1-c1cc(C)c2nc(N[C@H]3CC[C@H](N(C)C)CC3)ncc2c1 [145; Formic Acid Salt] ?
Result :: ≤ 5 nM

Query :: Field: IC50 (IRE1a (Homo sapiens, UniProt O75460)). Entry: CCc1cc(-c2ccc(NS(=O)(=O)c3ccccc3Cl)nc2C)cc2cnc(N[C@H]3CC[C@H](N(C)CCOC)CC3)nc12 [132; Formic Acid Salt]
Result :: ≤ 5 nM

Query :: Fill in the recorded IC50 for this molecule, with IRE1a (Homo sapiens, UniProt O75460) as test system: COc1nc(NS(=O)(=O)c2ccccc2Cl)ccc1-c1cc(C(F)(F)F)c2nc(N[C@H]3CC[C@H](N(C)C)CC3)ncc2c1 [135; Formic Acid Salt]
Result :: ≤ 5 nM

Query :: Look up IC50 with IRE1a (Homo sapiens, UniProt O75460) for this molecule: CCc1cc(-c2ccc(NS(=O)(=O)c3ccccc3C)nc2OC)cc2cnc(N[C@H]3CC[C@H](N(C)C)CC3)nc12 [119; Formic Acid Salt]
Result :: ≤ 5 nM

Query :: Item CCc1cc(-c2ccc(NS(=O)(=O)c3cccc(Cl)c3Cl)nc2C)cc2cnc(N[C@H]3CC[C@H](N(C)C)CC3)nc12 [152; Formic Acid Salt] with IRE1a (Homo sapiens, UniProt O75460) - IC50?
Result :: ≤ 5 nM

Query :: Recorded IC50 for CCc1nc(NS(=O)(=O)c2ccccc2Cl)ccc1-c1cc(CC)c2nc(N[C@H]3CC[C@H](N(C)C)CC3)ncc2c1 [117; Formic Acid Salt] with IRE1a (Homo sapiens, UniProt O75460), please?
Result :: ≤ 5 nM

Query :: Under IRE1a (Homo sapiens, UniProt O75460): IC50 value of CCc1cc(-c2ccc(NS(=O)(=O)c3ccccc3Cl)nc2C)cc2cnc(N[C@H]3CC[C@H](N(C)CC4CCC4)CC3)nc12 [130; Formic Acid Salt] ?
Result :: ≤ 5 nM

Query :: Reported IC50 for IRE1a (Homo sapiens, UniProt O75460), given CCc1cc(-c2cc(F)c(NS(=O)(=O)c3ccccc3Cl)nc2OC)cc2cnc(N[C@H]3CC[C@@H](N(C)C)CC3)nc12 [142; Formic Acid Salt] ?
Result :: 5 to 50 nM

Query :: Hi! What's the reported IC50 for COc1nc(NS(=O)(=O)c2ccccc2Cl)ccc1-c1cc(C)c2nc(N[C@H]3CC[C@@H](N(C)C)CC3)ncc2c1 [139; Formic Acid Salt] on IRE1a (Homo sapiens, UniProt O75460)?
Result :: 5 to 50 nM

====

Answer each item with its documented pEC50.
# Tested System: IRE1a (Homo sapiens, UniProt O75460)
# Method Summary: IRE1a Endoribonuclease Nanoluciferase Assay in 293T cells
# Condition Description: XBP1 luciferase reporter in 293T cells, ER stressor
pEC50: −log10 of the molar value. Counter-ions that a name gives are not always drawn.

Query :: Fill blank: measured pEC50 of the compound N[C@H]1CC[C@@H](Nc2ncc3cc(-c4ccc(NS(=O)(=O)c5ccccc5Cl)c(F)c4)ccc3n2)C1 [80; Formic Acid Salt] is ____.
Result :: 5.00 to 7.00

Query :: // query pEC50 value for entry CCc1cc(-c2ccc(NS(=O)(=O)c3ccccc3C)nc2OC)cc2cnc(N[C@H]3CC[C@H](N(C)C)CC3)nc12 [119; Formic Acid Salt]
Result :: ≥ 8.30

Query :: Returns the measured pEC50 for the input compound. Input: CCc1cc(-c2ccc(NS(=O)(=O)c3cccc(Cl)c3Cl)nc2C)cc2cnc(N[C@H]3CC[C@H](N(C)C)CC3)nc12 [152; Formic Acid Salt]
Result :: ≥ 8.30

Query :: Item under review: CCc1cc(-c2ccc(NS(=O)(=O)c3ccccc3Cl)nc2OC)cc2cnc(N[C@H]3CC[C@H](N(C)C)CC3)nc12 [99; Formic Acid Salt] . Reported pEC50?
Result :: ≥ 8.30

Query :: Tell me the measured pEC50 of COc1nc(NS(=O)(=O)c2ccccc2Cl)ccc1-c1cc(F)c2nc(N[C@H]3CC[C@H](N(C)C)CC3)ncc2c1 [148; Formic Acid Salt] , please.
Result :: ≥ 8.30

Query :: What does the record list as pEC50 for CCc1cc(-c2ccc(NS(=O)(=O)c3ccccc3Cl)nn2)cc2cnc(N[C@H]3CC[C@H](NC)CC3)nc12 [61; Formic Acid Salt] ?
Result :: ≥ 8.30

Query :: State the recorded pEC50 for this entry: COc1nc(NS(=O)(=O)c2ccccc2Cl)ccc1-c1cc(C(F)(F)F)c2nc(N[C@H]3CC[C@H](N(C)C)CC3)ncc2c1 [135; Formic Acid Salt]
Result :: ≥ 8.30

Query :: Query: pEC50; subject: CCc1cc(-c2ccc(NS(=O)(=O)c3cccc(C)c3Cl)nc2C)cc2cnc(N[C@H]3CC[C@H](N(C)C)CC3)nc12 [160; Formic Acid Salt]
Result :: ≥ 8.30

Query :: Given the compound N[C@H]1CCC[C@@H](Nc2ncc3cc(-c4ccc(NS(=O)(=O)c5ccccc5Cl)c(F)c4)ccc3n2)C1 [75; Formic Acid Salt] , what is its reported pEC50?
Result :: 5.00 to 7.00

Query :: Given CCc1cc(-c2ccc(NS(=O)(=O)c3ccccc3Cl)nc2C)cc2cnc(N[C@H]3CC[C@H](N(C)CC4CCC4)CC3)nc12 [130; Formic Acid Salt] , state its recorded pEC50.
Result :: ≥ 8.30

Query :: Using the record for CCc1c(F)c(-c2cc(F)c(NS(=O)(=O)c3ccccc3Cl)nc2C)cc2cnc(N[C@H]3CC[C@H](N(C)C)CC3)nc12 [162; Formic Acid Salt] , report its pEC50.
Result :: ≥ 8.30

Query :: Could you share which pEC50 value was measured for CCc1cc(-c2cnc(NS(=O)(=O)c3ccccc3Cl)c(F)c2)cc2cnc(N[C@H]3CC[C@H](N(C)C)CC3)nc12 [95; Formic Acid Salt] ?
Result :: ≥ 8.30

====

Hi there, I'd appreciate the recorded pEC50 for every entry that follows.
# Tested System: IRE1a (Homo sapiens, UniProt O75460)
# Method Summary: IRE1a Endoribonuclease Nanoluciferase Assay in 293T cells
# Condition Description: XBP1 luciferase reporter in 293T cells, ER stressor
# Procedure: Compounds disclosed herein were assessed for disruption of IRE1 signaling using a IRE1a Endoribonuclease Nanoluciferase Assay. Briefly, 2.5×10^6 293T cells were seeded in a 10 cm^2 tissue culture plate. About 24 hours later, the cells were transfected with Effectene. […] Plates were read on luminometer, 1000 ms integration time per well, 15 uL Stop and Glo (nanoluciferase kit) was added. […] Plates were read on luminometer, 1000 ms second integration time per well. […]
pEC50: −log10 of the molar value. Where a name gives a salt, the structure may show the parent alone.

Query :: Query: pEC50; subject: N[C@H]1CC[C@H](Nc2ncc3cc(-c4cc(F)c(NS(=O)(=O)c5ccccc5Cl)cc4F)ccc3n2)CC1 [53; Formic Acid Salt]
Result :: ≥ 8.30

Query :: Can you share its pEC50? I mean this molecule: CCc1cc(-c2ccc(NS(=O)(=O)c3cccc(F)c3Cl)nc2C)cc2cnc(N[C@H]3CC[C@H](N(C)C)CC3)nc12 [158; Formic Acid Salt]
Result :: ≥ 8.30

Query :: I'd like to know its pEC50. The molecule in question is CCc1cc(-c2ccc(NS(=O)(=O)c3ccccc3Cl)c(F)c2)cc2cnc(N[C@@H]3CCC[C@H](N)C3)nc12 [72; Formic Acid Salt]
Result :: 5.00 to 7.00

Query :: Item under review: COc1nc(NS(=O)(=O)c2ccccc2Cl)c(F)cc1-c1ccc2nc(N[C@H]3CC[C@H](N(C)C)CC3)ncc2c1 [149; Formic Acid Salt] . Reported pEC50?
Result :: 7.30 to 8.30

Query :: Record request: pEC50 value, item CCc1cc(-c2cc(F)c(NS(=O)(=O)c3ccccc3Cl)nc2OC)cc2cnc(N[C@H]3CC[C@H](NC)CC3)nc12 [127; Formic Acid Salt]
Result :: ≥ 8.30

Query :: // returns reported pEC50 for input CCc1cc(-c2cc(NS(=O)(=O)c3ccccc3Cl)n[nH]2)cc2cnc(N[C@H]3CC[C@H](N)CC3)nc12 [29; Formic Acid Salt]
Result :: 5.00 to 7.00
